Target: human sodium ion channel 1.7 (hNav1.7) (Homo sapiens, UniProt Q15858)
Sequence (Q15858 whole entry): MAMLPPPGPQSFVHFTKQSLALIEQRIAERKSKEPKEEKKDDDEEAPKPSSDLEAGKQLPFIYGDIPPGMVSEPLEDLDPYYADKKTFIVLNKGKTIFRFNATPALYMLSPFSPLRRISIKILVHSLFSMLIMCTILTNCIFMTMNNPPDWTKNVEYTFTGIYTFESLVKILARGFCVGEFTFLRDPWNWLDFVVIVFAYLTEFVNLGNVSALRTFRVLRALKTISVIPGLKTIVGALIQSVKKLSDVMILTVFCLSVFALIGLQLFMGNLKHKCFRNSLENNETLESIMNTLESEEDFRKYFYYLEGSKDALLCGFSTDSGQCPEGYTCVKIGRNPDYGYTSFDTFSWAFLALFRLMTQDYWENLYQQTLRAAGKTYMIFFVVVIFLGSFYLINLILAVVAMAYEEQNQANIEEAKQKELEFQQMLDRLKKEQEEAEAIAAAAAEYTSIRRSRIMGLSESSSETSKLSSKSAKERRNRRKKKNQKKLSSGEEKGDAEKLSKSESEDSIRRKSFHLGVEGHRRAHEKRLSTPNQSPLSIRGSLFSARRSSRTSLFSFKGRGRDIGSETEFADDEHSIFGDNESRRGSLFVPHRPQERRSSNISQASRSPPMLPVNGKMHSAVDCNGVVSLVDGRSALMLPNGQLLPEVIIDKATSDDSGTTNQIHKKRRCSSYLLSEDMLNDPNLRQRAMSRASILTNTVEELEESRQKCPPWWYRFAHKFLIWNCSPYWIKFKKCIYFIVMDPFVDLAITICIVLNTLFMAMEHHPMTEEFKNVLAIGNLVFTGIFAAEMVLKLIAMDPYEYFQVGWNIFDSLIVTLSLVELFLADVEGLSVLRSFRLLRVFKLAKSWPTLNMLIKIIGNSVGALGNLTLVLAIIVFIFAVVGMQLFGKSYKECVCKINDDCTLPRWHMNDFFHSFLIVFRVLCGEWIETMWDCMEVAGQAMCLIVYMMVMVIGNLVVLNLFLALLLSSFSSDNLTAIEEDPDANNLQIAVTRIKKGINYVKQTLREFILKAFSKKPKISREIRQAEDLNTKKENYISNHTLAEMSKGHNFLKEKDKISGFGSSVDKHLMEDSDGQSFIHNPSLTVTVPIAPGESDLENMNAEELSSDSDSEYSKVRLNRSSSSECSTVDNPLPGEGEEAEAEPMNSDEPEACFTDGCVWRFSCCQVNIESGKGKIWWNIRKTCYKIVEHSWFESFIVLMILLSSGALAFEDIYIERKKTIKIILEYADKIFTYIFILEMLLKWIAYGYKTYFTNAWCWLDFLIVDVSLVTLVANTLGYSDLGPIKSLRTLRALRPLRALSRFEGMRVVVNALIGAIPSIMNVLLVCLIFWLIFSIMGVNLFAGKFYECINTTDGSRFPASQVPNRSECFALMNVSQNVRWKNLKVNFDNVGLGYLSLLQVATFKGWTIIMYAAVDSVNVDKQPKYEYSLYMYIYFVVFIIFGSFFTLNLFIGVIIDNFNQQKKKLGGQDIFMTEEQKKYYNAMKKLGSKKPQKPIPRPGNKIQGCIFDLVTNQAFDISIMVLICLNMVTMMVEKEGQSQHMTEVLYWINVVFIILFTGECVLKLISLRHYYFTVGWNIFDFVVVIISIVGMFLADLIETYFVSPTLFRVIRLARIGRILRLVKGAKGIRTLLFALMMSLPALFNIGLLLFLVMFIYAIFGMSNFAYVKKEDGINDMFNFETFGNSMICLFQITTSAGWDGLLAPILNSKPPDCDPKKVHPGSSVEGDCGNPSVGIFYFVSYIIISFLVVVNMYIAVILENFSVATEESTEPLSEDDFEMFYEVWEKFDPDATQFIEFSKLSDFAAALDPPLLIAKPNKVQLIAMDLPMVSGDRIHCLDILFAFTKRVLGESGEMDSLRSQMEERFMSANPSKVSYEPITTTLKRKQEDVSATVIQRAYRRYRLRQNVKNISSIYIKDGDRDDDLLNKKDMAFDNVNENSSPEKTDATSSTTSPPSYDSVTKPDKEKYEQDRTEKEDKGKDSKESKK
Experiment: Blocking effect against sodium ion channel Nav1.7, IonFlux16 auto patch clamp in hNav1.7 HEK293 cells
Format: cell-based
Conditions: hNav1.7 HEK293 cells; inhibition of peak current after 50 seconds treatment; eight concentrations; read-out: IC50
pIC50: −log10 of the molar value.
OBSERVATION_TYPE: pIC50

Example entries begin here.
# COMPOUND, pIC50
data = [
    ("Cc1nn(-c2cc(F)c(S(=O)(=O)Nc3cscn3)cc2Cl)c2ccc(Cl)cc12 [Example 277]", 6.48),
    ("CS(=O)(=O)NC(=O)c1cc(Cl)c(-n2nc(-c3ccnc(F)c3)c3cc(Cl)ccc32)cc1F [Example 68]", 6.23),
]

a: COc1ccccc1-c1nn(-c2cc(F)c(C(=O)NS(C)(=O)=O)cc2Cl)c2ccc(Cl)cc12 [Example 58]
b: CS(=O)(=O)NC(=O)c1cc(Cl)c(-n2nc(-c3ccc(Cl)cc3)c3cc(C4CC4)ccc32)cc1F [Example 85]
Parameter metric = pIC50. Return the lower-valued option from a and b . Record your answer as the label of the chosen record.
b

I: CS(=O)(=O)NC(=O)c1cc(Cl)c(-n2nc(Cl)c3cc(OCc4cccc(F)c4)ccc32)cc1F [Example 38]
II: CS(=O)(=O)NC(=O)c1cc(Cl)c(-n2ncc3cc(Cl)ccc32)cc1F [Example 2]
Rank I against II by their pIC50 values and give the higher one. The response must carry the label of the picked entry.
I
